test: Aqueous solubility of the compound; type: physicochemical; conditions: water
measuredAttribute: solubility

{"columns": ["recordSmiles", "measuredAttribute", "observedResult"],
 "data": [
  ["Cc1c(C(=O)NCc2cccc(C(F)(F)F)c2)cnn1-c1ccc(Cl)c(Cl)c1", "solubility", "< 1 µg/mL"]
]}

----------
Reported values of IC50 for individual entries
biological target: UniProt P32246; assay: Antagonist activity at recombinant CCR1 (unknown origin) expressed in non-adherent cells co-expressing Galpha16 assessed as inhibition of MIP-1 alpha-induced calcium flux by Fluo-4 NW or Calcium 4 dye based FLIPR TETRA assay
Sequence (P32246 whole entry): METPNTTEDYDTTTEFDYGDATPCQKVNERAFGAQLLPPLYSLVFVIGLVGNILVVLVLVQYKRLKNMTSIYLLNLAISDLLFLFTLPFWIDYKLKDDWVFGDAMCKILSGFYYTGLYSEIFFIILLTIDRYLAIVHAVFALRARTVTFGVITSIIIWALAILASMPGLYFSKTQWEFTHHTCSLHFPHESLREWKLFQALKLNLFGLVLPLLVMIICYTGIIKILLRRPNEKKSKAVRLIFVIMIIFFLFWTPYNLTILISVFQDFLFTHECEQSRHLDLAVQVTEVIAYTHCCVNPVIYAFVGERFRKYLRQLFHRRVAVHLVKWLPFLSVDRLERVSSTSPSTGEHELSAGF

{"columns": ["recordSmiles", "IC50"],
 "data": [
  ["O=C(NCc1cccc(C(F)(F)F)c1)c1cnn(-c2ccc(Cl)cc2)c1C(F)(F)F", "> 3 µM"],
  ["O=C(NCc1cccc(C(F)(F)F)c1)c1cnn(-c2ccc(Cl)c(Cl)c2)c1", "> 3 µM"],
  ["Cc1c(C(=O)NCc2ccccc2S(C)(=O)=O)cnn1-c1ccc(Cl)cc1", "> 3 µM"],
  ["Cc1c(C(=O)NCc2cccnc2)cnn1-c1ccc(Cl)cc1", "> 3 µM"],
  ["Cc1c(C(=O)NCc2cccc(O)c2)cnn1-c1ccc(Cl)cc1", "> 3 µM"],
  ["Nc1c(C(=O)NCc2cccc(C(F)(F)F)c2)cnn1-c1ccc(Cl)cc1", "> 3 µM"],
  ["Cc1c(C(=O)N[C@@H](C)c2cccc(C(F)(F)F)c2F)cnn1-c1ccc(Cl)cc1", "0.028 µM"],
  ["COCc1c(C(=O)NCc2cccc(C(F)(F)F)c2)cnn1-c1ccc(Cl)cc1", "> 3 µM"],
  ["Cc1c(C(=O)NCc2cccc(C(F)(F)F)c2)cnn1Cc1ccccc1", "> 3 µM"],
  ["Cc1c(C(=O)NCc2cccc(C(F)(F)F)c2)cnn1-c1ccc(Cl)c(Cl)c1", "0.5 µM"],
  ["CC(C)(O)c1ccc2c(c1)/C(=C\\CCN1CC[C@](O)(c3ccc(Cl)cc3)C(C)(C)C1)c1cccnc1CO2", "0.0008 µM"],
  ["Cc1nn(-c2ccc(Cl)c(Cl)c2)c(C)c1C(=O)NCc1cccc(C(F)(F)F)c1", "> 3 µM"],
  ["Cc1c(C(=O)NCc2cccc(C(F)(F)F)c2)cnn1-c1cccc(C(F)(F)F)c1", "> 3 µM"],
  ["Cc1c(C(=O)NCc2cccc(C(F)(F)F)c2)cnn1-c1ccccc1Cl", "> 3 µM"],
  ["Cc1cc(-c2ccc(Cl)cc2)sc1C(=O)NCc1cccc(C(F)(F)F)c1", "1.9 µM"],
  ["Cc1nc(C(=O)NCc2cccc(C(F)(F)F)c2)nn1-c1ccc(Cl)cc1", "> 3 µM"]
]}
